- Tested on: SEM cells
- Method Summary: cell viability relative to DMSO control; higher = less cytotoxic
- Condition Label: RPMI 5 mM glucose + 10% FBS; 48 h; 0.00702 µM
Measured Metric: cell viability (%)
Entry rule: numbers only, all in %.

Request: Query the reported cell viability for SEM cells; item: C[C@@H](Cc1cc2c(c(C(N)=O)c1)N(CCCO)CC2)NCCOc1ccccc1OCC(F)(F)F
Response: 114

Request: Query the reported cell viability for SEM cells; item: COc1cccc(N(C)C(=S)Oc2ccc3c(c2)CCCC3)n1
Response: 86.7

----------
- System: SEM cells
- Method Summary: cell viability relative to DMSO control; higher = less cytotoxic
- Condition Label: HPLM + 10% dialyzed FBS; 48 h; 0.0211 µM
Measured Metric: cell viability

Known cell viability results, listed for orientation:
Molecule | Measurement Target | cell viability
NC(=O)N1CCC(CC(=O)N2CCC([C@H]3c4ncc(Br)cc4CCc4cc(Cl)cc(Br)c43)CC2)CC1 | SEM cells | 124%
CC(C)[C@]12O[C@H]1[C@@H]3O[C@@]34[C@@]5(C)CC\C6=C(COC6=O)/[C@@H]5C[C@@H]7O[C@]47[C@@H]2O | SEM cells | 7.2%

Field: next molecule
Request: I would be grateful if you could share the reported cell viability for O=C1c2ccccc2-c2n[nH]c3cccc1c23 .
Response: 97.9%

----------
- Tested on: NOMO1
- Method Summary: AUC of viability dose-response curve (% viability x log10 dose units); higher = less sensitive
- Condition Label: RPMI 5 mM glucose + 10% FBS; 48 h
Below: a set of entries, each annotated with reported AUC of viability dose-response curve.
Note: the reply should be a number with no unit written.

Known AUC of viability dose-response curve results, listed for orientation:
Compound | AUC of viability dose-response curve
C[C@H](NC(=O)[C@@H](O)c1cc(F)cc(F)c1)C(=O)N[C@@H]1C(=O)N(C)c2ccccc2-c2ccccc21 | 450
C[C@@H]1C[C@@H]([C@H](O)CC2CC(=O)NC(=O)C2)C(=O)[C@@H](C)C1 | 337
COC(=O)CCC1=C(C)C2=CC3=NC(=CC4=C(C)C(=C([NH]4)C=C\5N=C(C=C1[NH]2)\C(=C5C)CCC(O)=O)C=C)\C6=C\C=C(/[C@@H](C(=O)OC)[C@@]36C)C(=O)OC | 433

Request: I would be grateful if you could share the reported AUC of viability dose-response curve for Clc1ccc(C(c2ccccc2Cl)C(Cl)Cl)cc1 (centres undefined) .
Response: 456

----------
Below: a set of entries, each annotated with reported cell viability.
- Test system: SEM cells
- Method Summary: cell viability relative to DMSO control; higher = less cytotoxic
- Condition Label: HPLM + 10% dialyzed FBS; 48 h; 0.00702 µM
Entry rule: numbers only, all in %.

Known cell viability results, listed for orientation:
Compound | Measurement Unit | cell viability
Cc1n[nH]c2ccc(-c3cncc(OC[C@@H](N)Cc4ccccc4)c3)cc12 | % | 117
COc1cc(N2CCC(N3CCN(C)CC3)CC2)ccc1Nc1ncc(Cl)c(Nc2ccccc2[S+](=O)([O-])C(C)C)n1 | % | 75.8
COc1cc2c(cc1O)CCC1C2CC[C@@]2(C)C1CC[C@@H]2O (stereo partly drawn) | % | 98.4
c1cc2c(cc1[C@H]1OC[C@H]3[C@@H]1CO[C@@H]3c1ccc3c(c1)OCO3)OCO2 | % | 119
CC(C)[C@H](O)C(=O)N[C@@H](C)C(=O)N[C@@H]1C(=O)N(C)CCc2ccccc21 | % | 127
CCC(=O)NC[C@H](Cc1ccc(OCCc2nc(-c3ccccc3)oc2C)cc1)N/C(C)=C\C(=O)c1ccc(C(F)(F)F)cc1 | % | 104

Request: I would be grateful if you could share the reported cell viability for c1coc(CNc2ncnc3nc[nH]c23)c1 .
Response: 112

Request: I would be grateful if you could share the reported cell viability for CN(CC(=O)N(Cc1ccc(C2CCCCC2)cc1)c1ccc(C(=O)O)c(O)c1)[S+](=O)([O-])c1c(F)c(F)c(F)c(F)c1F .
Response: 104

Request: I would be grateful if you could share the reported cell viability for CO[C@H]1C[C@@H]2CC[C@@H](C)[C@@](O)(O2)C(=O)C(=O)N2CCCC[C@H]2C(=O)O[C@H]([C@@H](C)C[C@@H]2CC[C@@H](O)[C@H](OC)C2)CC(=O)[C@H](C)/C=C(\C)[C@@H](O)[C@@H](OC)C(=O)[C@H](C)C[C@H](C)/C=C/C=C/C=C/1C .
Response: 88

Request: I would be grateful if you could share the reported cell viability for COCCCC/C(=N\OCCN)c1ccc(C(F)(F)F)cc1 .
Response: 75.7

Request: I would be grateful if you could share the reported cell viability for COC(=O)[C@H](Cc1ccccc1)NC(=O)[C@@H](N)CC(=O)O .
Response: 111

Request: I would be grateful if you could share the reported cell viability for COC(=O)CCC1=C(C)C2=CC3=NC(=CC4=C(C)C(=C([NH]4)C=C\5N=C(C=C1[NH]2)\C(=C5C)CCC(O)=O)C=C)\C6=C\C=C(/[C@@H](C(=O)OC)[C@@]36C)C(=O)OC .
Response: 89.7

Request: I would be grateful if you could share the reported cell viability for CNC(=O)c1nn(C)c2c1C(C)(C)Cc1cnc(Nc3ccc(N4CCN(C)CC4)cc3)nc1-2 .
Response: 103

Request: I would be grateful if you could share the reported cell viability for NC(=O)c1nnn(Cc2cc(Cl)c(C(=O)c3ccc(Cl)cc3)c(Cl)c2)c1N .
Response: 125

Request: I would be grateful if you could share the reported cell viability for O=C(NOCC1CC1)c1ccc(F)c(F)c1Nc1ccc(I)cc1Cl .
Response: 109

Request: I would be grateful if you could share the reported cell viability for CC(C)(Sc1cc(C(C)(C)C)c(O)c(C(C)(C)C)c1)Sc1cc(C(C)(C)C)c(O)c(C(C)(C)C)c1 .
Response: 60

Request: I would be grateful if you could share the reported cell viability for CCCCCN(C)CCC(O)(P(=O)([O-])O)P(=O)(O)O .
Response: 72.8

Request: I would be grateful if you could share the reported cell viability for C[S+](=O)([O-])OCCCCO[S+](C)(=O)[O-] .
Response: 134

----------
Below: a set of entries, each annotated with reported cell viability.
- Tested on: NOMO1
- Method Summary: cell viability relative to DMSO control; higher = less cytotoxic
- Condition Label: HPLM + 10% dialyzed FBS; 48 h; 0.0632 µM
Entry rule: numbers only, all in %.

Known cell viability results, listed for orientation:
Structure As Smiles | Measurement Target | Measurement Unit | cell viability
c1cc2c(cc1[C@H]1OC[C@H]3[C@@H]1CO[C@@H]3c1ccc3c(c1)OCO3)OCO2 | NOMO1 | % | 134
O=C(Nc1cccnc1)N1CCC(Cc2cccc(Oc3ccc(C(F)(F)F)cn3)c2)CC1 | NOMO1 | % | 115
C[C@]12CC[C@H]3[C@@H](CC[C@@]45O[C@@H]4C(O)=C(C#N)C[C@]35C)[C@@H]1CC[C@@H]2O | NOMO1 | % | 123
CC[C@H](C)C(=O)O[C@H]1C[C@@H](C)\C=C2\C=C/[C@H](C)[C@H](CC[C@@H]3C[C@@H](O)CC(=O)O3)[C@@H]12 | NOMO1 | % | 96.3
CC(C)CC(=O)Nc1n[nH]c2c1CN(C(=O)C1CCN(C)CC1)C2(C)C | NOMO1 | % | 85.3

Request: I would be grateful if you could share the reported cell viability for CN(CC(=O)N(Cc1ccc(C2CCCCC2)cc1)c1ccc(C(=O)O)c(O)c1)[S+](=O)([O-])c1c(F)c(F)c(F)c(F)c1F .
Response: 117

----------
- System: SEM cells
- Method Summary: cell viability relative to DMSO control; higher = less cytotoxic
- Condition Label: HPLM + 10% dialyzed FBS; 48 h; 1.71 µM
Threshold check on cell viability: strictly below 80% is t; on or above 80% is f.

Compound | Cat
CN(C)c1ccc(-c2nc3c(N4CCN(CC(=O)Nc5nccs5)CC4)c(Cl)cnc3[nH]2)cc1 | f
O=C(Nc1cccnc1)N1CCC(Cc2cccc(Oc3ccc(C(F)(F)F)cn3)c2)CC1 | t
CN1CCN(CC1)C2=CC3=C([NH]C(=N3)C/4=C(\N)C5=C(F)C=CC=C5NC4=O)C=C2 | t

Request: hey, is cell viability for Clc1ccc(C(c2ccccc2Cl)C(Cl)Cl)cc1 (configuration not stated) lower than 80% or not?
Response: f

Request: hey, is cell viability for C/C=C(\C)C(=O)N[C@@H](c1ccccc1)[C@@H](O)C(=O)O[C@H]1C[C@@]2(O)[C@@H](OC(=O)c3ccccc3)[C@@H]3[C@]4(OC(C)=O)CO[C@@H]4C[C@H](O)[C@@]3(C)C(=O)[C@H](OC(C)=O)C(=C1C)C2(C)C lower than 80% or not?
Response: t

Request: hey, is cell viability for COCCCC/C(=N\OCCN)c1ccc(C(F)(F)F)cc1 lower than 80% or not?
Response: f
